Cited source: the Biogen ADME set (Fang et al. 2023)

Cut-off 1 on MDR1-MDCK efflux ratio, inclusive. At or above means Yes; below means No.

{"smiles-record": "CCc1c(C)nn(CCNC(=O)CCc2cnccn2)c1C", "class-assignment": "Yes"}
{"smiles-record": "CCOc1ccc(CN[C@@H]2CCC[C@H]2Cc2cc(C)no2)cc1OC", "class-assignment": "Yes"}
{"smiles-record": "CO[C@H]1COCCN(C(=O)c2cccnc2)C1", "class-assignment": "Yes"}
{"smiles-record": "N#Cc1ccc(NS(=O)(=O)c2c[nH]c3nc(Cl)ccc23)c(F)c1", "class-assignment": "Yes"}
{"smiles-record": "CN(C)c1ccc2c(c1)OCCN2C(=O)NCc1cccnc1", "class-assignment": "Yes"}
{"smiles-record": "CCCN(C(=O)c1c(CC)noc1C)C1Cc2ccccc2C1", "class-assignment": "No"}
{"smiles-record": "Cc1ccc(-n2cc[nH]c(=O)c2=O)cc1", "class-assignment": "Yes"}
{"smiles-record": "Cc1ccc(Cl)c(OC[C@@]2(O)CN(C3CCC3)CC[C@@H]2O)c1", "class-assignment": "No"}
{"smiles-record": "COC(=O)CC1=NN(c2ccc(OC)cc2)C(=O)/C1=C(/C)NCc1ccc(OC)cc1", "class-assignment": "Yes"}
{"smiles-record": "CN(CC(=O)Nc1cccc(F)c1)C(=O)c1cccc(C#N)c1", "class-assignment": "Yes"}
{"smiles-record": "CC(C)C(=O)Nc1ncc(-c2ccccc2)s1", "class-assignment": "No"}
{"smiles-record": "FC(F)(F)c1ccc(Nc2nc3cc(Oc4ccnc(-c5ncc(C(F)(F)F)[nH]5)c4)ccc3[nH]2)cc1", "class-assignment": "No"}
{"smiles-record": "OC1(Cc2nc(-c3ccsc3)no2)CCCCC1", "class-assignment": "No"}
{"smiles-record": "COc1ccc(C(=O)C2CCN(CC(=O)N(Cc3nc4c(c(=O)[nH]3)COCC4)CC3CC3)CC2)cc1", "class-assignment": "Yes"}
{"smiles-record": "C#Cc1cccc(N(CC(=O)NC(N)=O)Cc2cccs2)c1", "class-assignment": "Yes"}

* * *

We begin with a simple list: items and their reported intrinsic clearance, rat liver microsomes.
parameter: intrinsic clearance, rat liver microsomes

{"smiles-record": "Clc1ccc(C2(c3ccc(-c4cn[nH]c4)cc3)CCNCC2)cc1", "val": "≤ 10.7 mL/min/kg"}
{"smiles-record": "Cc1cc2cc(C(=O)N(C)CCC(=O)O)oc2cc1C", "val": "≤ 10.7 mL/min/kg"}
{"smiles-record": "Cc1ccc(C(=O)O)cc1NS(=O)(=O)c1csc(C(=O)Nc2ccccc2)c1", "val": "≤ 10.7 mL/min/kg"}

* * *

log10 of intrinsic clearance, rat liver microsomes listing for selected compounds.
parameter: log10 of intrinsic clearance, rat liver microsomes (log10 of the value in mL/min/kg)

{"smiles-record": "CCOc1ccc(C(=O)Nc2cnn(C3CCOCC3)c2)cn1", "val": 2.03}
{"smiles-record": "Cc1cc(-c2cccc3ccnn23)nc(N2CCCC2)n1", "val": 3.20}
{"smiles-record": "CN(CCCC1CCCC1)Cc1cc(=O)[nH]c(=O)[nH]1", "val": 2.22}
{"smiles-record": "OCC1CN(c2nc3cc(F)ccc3o2)C1", "val": 1.24}
{"smiles-record": "CSCC(=O)N1CCN(C(=O)CSC)C2(CCCCC2)C1", "val": 2.94}
{"smiles-record": "C[C@@H](/C=C\\C(F)(F)F)Oc1cc(-c2cc(-c3cc(CN(C)C)cs3)cnc2N)ccc1C(N)=O", "val": 2.20}
{"smiles-record": "CC(=O)c1cc(Br)cc(F)c1OCc1ccccn1", "val": 2.50}
{"smiles-record": "O=C(c1cn(Cc2cncn2Cc2ccc(Br)cc2)cc1-c1cccc2ccccc12)N1CCOCC1", "val": 3.30}
{"smiles-record": "O=C(CCc1cnn(-c2ccccc2)c1)N1CCC(n2c(=O)[nH]c3ccccc32)CC1", "val": 3.58}
{"smiles-record": "O=c1cc2c(n[nH]1)-c1cnc(N3CCCC3)nc1CC2", "val": 2.01}
